# credit: ChEMBL document CHEMBL1140592

pIC50: −log10 of the molar value.
Heads up, these molecules all have pIC50 values measured for Serine/threonine-protein kinase Chk2 (Homo sapiens, UniProt O96017).
MEASURE NAME: pIC50

(I) N=C(NCC(O)CO)c1c(O)nsc1Nc1ccc(Nc2ccccc2)cc1 (stereo not drawn)
(II) N=C(NCC1CCCCC1)c1c(O)nsc1Nc1ccc(Nc2ccc(Br)cc2)cc1
(III) CC(C)NC(=N)c1c(O)nsc1Nc1ccc(Cc2ccccc2)cc1
Put the above molecules in order of rising pIC50, beginning with the smallest. Give the labels in the order specified.
III, I, II

###

For reference, IC50 measured on Serine/threonine-protein kinase Chk2 (Homo sapiens):
MEASURE NAME: IC50 (µM)

(A) CC(C)NC(=N)c1c(O)nsc1Nc1ccc(Nc2ccc(Br)cc2)cc1
(B) N=C(NCC1CCCCC1)c1c(O)nsc1Nc1ccc(/N=N/c2ccccc2)cc1
(C) CC(CO)NC(=N)c1c(O)nsc1Nc1ccc(Nc2ccccc2)cc1 (stereo not given)
(D) CCC[C@H]1CC[C@H](c2ccc(Nc3s[nH]c(=O)c3C(N)=NCC(O)CO)cc2)CC1 (stereo not given in full)
sort_by: IC50; order: ascending; scope: items listed above When ranking, write the labels in the order the request describes.
A, C, B, D

###

- ASSAYED TARGET: Serine/threonine-protein kinase Chk2 (Homo sapiens, UniProt O96017)
- Sequence (O96017 whole entry): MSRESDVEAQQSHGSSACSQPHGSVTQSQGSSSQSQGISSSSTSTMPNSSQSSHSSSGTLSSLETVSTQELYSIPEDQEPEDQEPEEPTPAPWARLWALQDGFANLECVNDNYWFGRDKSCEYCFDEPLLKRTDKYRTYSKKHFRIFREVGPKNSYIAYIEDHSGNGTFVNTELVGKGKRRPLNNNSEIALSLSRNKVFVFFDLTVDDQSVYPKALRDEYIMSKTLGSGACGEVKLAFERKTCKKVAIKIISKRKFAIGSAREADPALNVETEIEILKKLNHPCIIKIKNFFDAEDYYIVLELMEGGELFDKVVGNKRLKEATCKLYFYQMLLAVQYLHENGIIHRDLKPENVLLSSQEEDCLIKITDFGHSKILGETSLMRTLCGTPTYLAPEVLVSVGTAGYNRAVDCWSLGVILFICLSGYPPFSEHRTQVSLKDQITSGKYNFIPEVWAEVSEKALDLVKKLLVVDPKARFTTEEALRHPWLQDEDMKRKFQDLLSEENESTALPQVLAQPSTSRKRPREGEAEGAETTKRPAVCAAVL
- METHOD DESCRIPTION: Inhibition of Chk2 kinase
pIC50: −log10 of the molar value.
MEASURE NAME: pIC50

The following compounds have reported results that may help.
N=C(NCC1CCCCC1)c1c(O)nsc1Nc1ccc(Cc2ccccc2)cc1: 4.43
CC(C)NC(=N)c1c(O)nsc1Nc1ccc(Nc2ccccc2)cc1: 6.38
N=C(NCC1CCCCC1)c1c(O)nsc1Nc1ccc(Sc2ccccc2)cc1: 4.72

(1) CC(C)NC(=N)c1c(O)nsc1Nc1ccc(/N=N/c2ccccc2)cc1
(2) CC(C)NC(=N)c1c(O)nsc1Nc1ccc(C2CCCCC2)cc1
Hi! Which is lower in terms of pIC50, the first one 1 or the second one 2 ? Choose, then provide that item's label.
2
